Record form. Attribute: Activity. Fill in for each entry.
# Species on record: Bos taurus
# Protocol Description: Inhibition of bovine trypsin assessed as protease activity using D-CHA-AR-AMC as substrate at 10 uM by fluorescence assay relative to control
# Design: scale not given: the % may be the effect or the level left
Value expressed in %; do not type the unit.

Lookup: Need Activity, item "N=C(N)Nc1ccc(C(=O)Oc2ccc(CC(=O)N[C@@H](CC(=O)O)C(=O)O)n3ncnc23)cc1"
Found: 100

Lookup: Same question for "C/C(=N\O)Nc1ccc(C(=O)Oc2ccc(CC(=O)O)n3ncnc23)cc1" please.
Found: 10.1

Lookup: Same question for "CONC(=N)c1ccc(C(=O)Oc2ccc(CC(=O)O)n3ncnc23)cc1" please.
Found: 18.2

Lookup: Same question for "N=C1NCCN1c1ccc(C(=O)Oc2ccc(CC(=O)O)n3ncnc23)cc1" please.
Found: 93

Lookup: Same question for "Cc1cc(C(=O)Oc2ccc(CC(=O)O)n3ncnc23)ccc1NC(=N)N" please.
Found: 35.5

Lookup: Same question for "CNC(=N)c1ccc(C(=O)Oc2ccc(CC(=O)O)n3ncnc23)cc1" please.
Found: 66.5

Lookup: Same question for "CN(C(=N)N)c1ccc(C(=O)Oc2ccc(CC(=O)O)n3ncnc23)cc1" please.
Found: 98.9

Lookup: Same question for "N=C(N)Nc1ccc(C(=O)Oc2ccc(CC(=O)N[C@@H](CC(=O)O)C(=O)O)n3ccnc23)cc1" please.
Found: 100

Lookup: Same question for "N=C(N)Nc1ccc(C(=O)Oc2ccc(CC(=O)O)n3ncnc23)c(F)c1" please.
Found: 100

Lookup: Same question for "N=C(N)Nc1ccc(C(=O)Oc2ccc(CC(=O)O)n3ccnc23)cc1" please.
Found: 101

Lookup: Same question for "N=C(N)Nc1cccc(C(=O)Oc2ccc(CC(=O)O)n3ncnc23)c1" please.
Found: 18.6

Lookup: Same question for "N=C(N)Nc1ccc(C(=O)Oc2cc(CC(=O)O)cn3ncnc23)cc1" please.
Found: 100

Lookup: Same question for "N=C(N)Nc1ccc(C(=O)Oc2ccc(CC(=O)NCC(=O)O)n3ncnc23)cc1" please.
Found: 100

Lookup: Same question for "O=C(O)Cc1ccc(OC(=O)c2ccc(C3=NCCN3)cc2)c2ncnn12" please.
Found: 21.6

Lookup: Same question for "N=C(N)Nc1ccc(C(=O)Oc2ccc(CC(=O)O)n3ncnc23)cc1O" please.
Found: 100

Lookup: Same question for "N=C(N)Nc1ccc(C(=O)Oc2ccc(CC(=O)N(CC(=O)O)CC(=O)O)n3ncnc23)cc1" please.
Found: 100

Lookup: Same question for "N=C(N)Nc1ccc(C(=O)Oc2cc(CCC(=O)O)cn3ncnc23)cc1" please.
Found: 100

Lookup: Same question for "N=C(N)Nc1ncc(C(=O)Oc2ccc(CC(=O)O)n3ncnc23)cn1" please.
Found: 100

Lookup: Same question for "CNC(=N)Nc1ccc(C(=O)Oc2ccc(CC(=O)O)n3ncnc23)cc1" please.
Found: 97.7

Lookup: Same question for "N=C(N)Nc1ccc(C(=O)Oc2ccc(CC(=O)O)n3ncnc23)c(C(F)(F)F)c1" please.
Found: 88.7

Lookup: Same question for "N=C(N)Nc1ccc(C(=O)Oc2ccc(CC(=O)NC(CC(=O)O)(CC(=O)O)CC(=O)O)n3ncnc23)cc1" please.
Found: 100

Lookup: Same question for "C#CCOCCOCC#Cc1ccc(CC(=O)O)n2ncnc12" please.
Found: 100

Lookup: Same question for "N=C(N)NCc1ccc(C(=O)Oc2ccc(CC(=O)O)n3ncnc23)cc1" please.
Found: 72.5

Lookup: Same question for "CS(=O)(=O)NC(=O)Cc1ccc(OC(=O)c2ccc(NC(=N)N)cc2)c2ncnn12" please.
Found: 99.9

Lookup: Same question for "N#CNC(=N)c1ccc(C(=O)Oc2ccc(CC(=O)O)n3ncnc23)cc1" please.
Found: 35.8

Lookup: Same question for "N=C(N)Nc1ccc(C(=O)Oc2ccc(CC(=O)O)n3ncnc23)s1" please.
Found: 99.8

Lookup: Same question for "O=C(O)Cc1ccc(OC(=O)c2ccc(NC3=NCCN3)cc2)c2ncnn12" please.
Found: -7.45

Lookup: Same question for N=C(N)Nc1ccc(C(=O)Oc2ccc(C3OC(=O)NC3=O)n3ncnc23)cc1 (stereo not drawn) please.
Found: 100

Lookup: Same question for "N=C(NN)c1ccc(C(=O)Oc2ccc(CC(=O)O)n3ncnc23)cc1" please.
Found: 25.5

Lookup: Same question for "N=C(N)Nc1ccc(C(=O)Oc2ccc(CC(=O)O)n3ncnc23)cc1Cl" please.
Found: 99.8

Lookup: Same question for "N=C(N)Nc1ccc(C(=O)Oc2ccc(CC(=O)O)n3ncnc23)cc1" please.
Found: 100

Lookup: Same question for "O=C(O)Cc1ccc(OC(=O)c2ccc(NC3=NCCCN3)cc2)c2ncnn12" please.
Found: -7.38

Lookup: Same question for "Cc1cc(NC(=N)N)ccc1C(=O)Oc1ccc(CC(=O)O)n2ncnc12" please.
Found: 99.7

Lookup: Same question for "COc1cc(C(=O)Oc2ccc(CC(=O)O)n3ncnc23)ccc1NC(=N)N" please.
Found: 99.9

Lookup: Same question for "CC(=N)Nc1ccc(C(=O)Oc2ccc(CC(=O)O)n3ncnc23)cc1" please.
Found: 99.7

Lookup: Same question for "C/N=C(\NC)Nc1ccc(C(=O)Oc2ccc(CC(=O)O)n3ncnc23)cc1" please.
Found: 9.42

Lookup: Same question for "N=C(N)Nc1ccc(C(=O)Oc2ccc(CCC(=O)O)n3ncnc23)cc1" please.
Found: 100

Lookup: Same question for "N=C(N)Nc1ccc(C(=O)Oc2ccc(CC(=O)O)n3ncnc23)cc1F" please.
Found: 100

Lookup: Same question for "N=C(N)Nc1ccc(C(=O)Oc2ccc(Cc3nn[nH]n3)n3ncnc23)cc1" please.
Found: 100

Lookup: Same question for "N=C(N)Nc1ccc(C(=O)Oc2ccc(CCC(=O)O)n3ccnc23)cc1" please.
Found: 100

Lookup: Same question for "N=C(N)Nc1ccc(C(=O)Oc2ccc(CC(=O)O)n3ncnc23)c2ccoc12" please.
Found: 99.9

Lookup: Same question for "N#Cc1cc(C(=O)Oc2ccc(CC(=O)O)n3ncnc23)ccc1NC(=N)N" please.
Found: 29.9

Lookup: Same question for "N=C(N)Nc1ccc(C(=O)Oc2ccc(CC(=O)O)n3ncnc23)c(Cl)c1" please.
Found: 99.9
